Sourced from patent US20150037328A1

# SUBJECT OF TEST: T1, human CXCR4 (chemokine (C-X-C motif) receptor 4) (human, UniProt P61073 1-352)
# T1 construct: Endogenous on human tumour cell lines (Ramos, HPB-ALL, Raji, Jurkat, MM1.S, RPMI-8226, MOLP-8, MOLT-4) or transfected into CHO-K1 cells (DiscoveRx); also called CXCR4 receptor
# ASSAY PROTOCOL: flow cytometry on HPB-ALL cells, Fab at 0.25 µg/ml
OBSERVED PROPERTY: MFI
Numbers only.

[
  {
    "BINDER": "h3G10.3.25 VH / h3G10.2.72 VL Fab (Fab, V domains shown, Tested as Fab) VH: EVQLVESGGGLVQPGGSLRLSCAASGFTFSDYYMSWVRQAPGKGLEWVGFIRHKANFYTTEYSTSDKGRFTISRDDSKNSLYLQMNSLKTEDTAVYYCARDLPGFAYWGQGTLVTVSS VL: DIVMTQSPDSLAVSLGERATINCKSSQSLFNSRTRKNYLAWYQQKPGQPPKLLIYWASARESGVPDRFSGSGSGTDFTLTISSLQAEDVAVYYCKQSFRLRTFGGGTKVEIK",
    "OBSERVED PROPERTY": "MFI",
    "NUMERIC RESULT": 454
  },
  {
    "BINDER": "h3G10.2.45 VH / h3G10.2.72 VL Fab (Fab, V domains shown, Tested as Fab) VH: EVQLVESGGGLVQPGGSLRLSCAASGFTFSDYYMSWVRQAPGKGLEWVGFIRHKANFYTTEYSTWVKGRFTISRDDSKNSLYLQMNSLKTEDTAVYYCARDLPGFAYWGQGTLVTVSS VL: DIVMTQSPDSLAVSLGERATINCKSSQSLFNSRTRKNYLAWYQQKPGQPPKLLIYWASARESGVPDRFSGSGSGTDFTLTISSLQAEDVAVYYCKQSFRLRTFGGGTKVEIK",
    "OBSERVED PROPERTY": "MFI",
    "NUMERIC RESULT": 929
  },
  {
    "BINDER": "h3G10 VH / h3G10 VL Fab (Fab, V domains shown, Tested as Fab; also called h3G10 Fab) VH: EVQLVESGGGLVQPGGSLRLSCAASGFTFSDYYMSWVRQAPGKGLEWVGFIRHKANGYTTEYSTSVKGRFTISRDDSKNSLYLQMNSLKTEDTAVYYCARDLPGFAYWGQGTLVTVSS VL: DIVMTQSPDSLAVSLGERATINCKSSQSLFNSRTRKNYLAWYQQKPGQPPKLLIYWASARESGVPDRFSGSGSGTDFTLTISSLQAEDVAVYYCKQSFNLRTFGGGTKVEIK",
    "OBSERVED PROPERTY": "MFI",
    "NUMERIC RESULT": 563
  }
]

Could you tell me which MFI is on file for h3G10.2.54 VH / h3G10.2.72 VL Fab (Fab, V domains shown, Tested as Fab) VH: EVQLVESGGGLVQPGGSLRLSCAASGFTFSDYYMSWVRQAPGKGLEWVGFIRHKANFYTTEYSTSVRGRFTISRDDSKNSLYLQMNSLKTEDTAVYYCARDLPGFAYWGQGTLVTVSS VL: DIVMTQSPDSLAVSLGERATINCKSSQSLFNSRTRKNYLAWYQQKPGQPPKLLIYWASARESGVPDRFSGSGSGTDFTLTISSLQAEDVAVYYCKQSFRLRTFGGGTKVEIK ? 1740
